# Test system: RPMI-8226 leukemia
# test.protocol: NCI tumour cell line growth inhibition, 48 h
Property: TGI; scope: individual compounds

# count of solved cases: 8
compound	TGI
CC(=O)OCC(C)C1=C(O)C(=O)C2(C)C/C=C(/C)CC/C=C(\C)CCC(O)C(C)CCC12 (stereo not drawn)	39.2 µM
OC1C2[C@@H](O)CCCN2C[C@@H](O)[C@H]1O (stereo partly drawn)	> 100 µM
C=C(C(=O)C(=O)Oc1ccc(Cl)cc1)C(=O)c1ccc(C)cc1	> 100 µM
CC[C@]1(Cc2ccc(OC)c(OC)c2)CN(S(=O)(=O)c2ccc(C)cc2)C[C@@H]1OC(C)=O	> 100 µM
CN(CCC#N)c1ccc(/C=C2\SC(=S)NC2=O)cc1	> 100 µM
N#Cc1ccc(C#Cc2ccccc2C#CCCCCO)cc1	44.1 µM
Nc1cc(CO)cc(Nc2nc3ccc(Cl)cc3c3[nH]c4ccccc4c23)c1	9.78 µM
OCc1ccc2[n+](c1)CCC1c3ccccc3NC21 (stereo not drawn)	> 300 µM

I would be grateful if you could share the reported TGI for COc1ccc(OC)c(NC(=O)C(=O)C(C(C)=O)c2nc3ccc(Cl)cc3[nH]c2=O)c1 (stereo not drawn) .
> 50 µM

Try CCCCCCCCCCCC(=O)CC(=O)c1c(O)cccc1O next.
43.9 µM
